# subjectOfTest: human orexin-2 receptor (Homo sapiens (Human), UniProt O43614)
# Sequence (O43614 whole entry): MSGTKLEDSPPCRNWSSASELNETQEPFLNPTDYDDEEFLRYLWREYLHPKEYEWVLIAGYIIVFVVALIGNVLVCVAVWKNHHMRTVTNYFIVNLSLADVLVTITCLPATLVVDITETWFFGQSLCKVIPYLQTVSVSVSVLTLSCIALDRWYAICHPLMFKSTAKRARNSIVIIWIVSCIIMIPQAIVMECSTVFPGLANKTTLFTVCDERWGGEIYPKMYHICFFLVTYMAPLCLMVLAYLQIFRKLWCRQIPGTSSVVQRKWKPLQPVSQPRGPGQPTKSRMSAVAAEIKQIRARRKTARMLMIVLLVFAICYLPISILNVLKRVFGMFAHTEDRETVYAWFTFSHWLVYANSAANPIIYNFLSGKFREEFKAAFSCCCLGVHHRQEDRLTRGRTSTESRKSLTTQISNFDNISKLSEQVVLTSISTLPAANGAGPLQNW
# assayExplanation: Human orexin 2 receptor radioligand binding ([3H]-EMPA competition)
# conditionSummary: HEK293 cells stably expressing human orexin-2 receptor; [3H]-EMPA 5 nM final; apparent Ki=IC50/(1+C/Kd), Kd=2 nM; read-out: OR 2 Ki
pKi: −log10 of the molar value.
quantity: pKi

[[record]]
molecule = "CCOc1cccc(OCC)c1C(=O)N1CC2CN(c3nc(C)cc(C)n3)CC2C1 (stereo not shown) [Example 229]"
subjectoftest = "human orexin-2 receptor (Homo sapiens (Human), UniProt O43614)"
reported = 6.50

[[record]]
molecule = "Cc1cc(N2CC3CN(C(=O)c4ccccc4-n4nccn4)CC3C2)nc(C)n1 (stereo not shown) [Example 122]"
subjectoftest = "human orexin-2 receptor (Homo sapiens (Human), UniProt O43614)"
reported = 6.06

[[record]]
molecule = "Cc1cc(C)nc(N2CC3CN(C(=O)c4nc(C)sc4-c4ccccc4F)CC3C2)n1 (stereo not shown) [Example 132]"
subjectoftest = "human orexin-2 receptor (Homo sapiens (Human), UniProt O43614)"
reported = 6.90

[[record]]
molecule = "Cc1ccnc(N2CC3CN(C(=O)c4ccccc4-n4nccn4)CC3C2)n1 (stereo not shown) [Example 135]"
subjectoftest = "human orexin-2 receptor (Homo sapiens (Human), UniProt O43614)"
reported = 7.05

[[record]]
molecule = "Cc1cc(N2CC3CN(C(=O)c4c(F)cccc4-c4ncccn4)CC3C2)nc(C(F)(F)F)n1 (stereo not shown) [Example 117]"
subjectoftest = "human orexin-2 receptor (Homo sapiens (Human), UniProt O43614)"
reported = 7.62

[[record]]
molecule = "O=C(c1cccc(F)c1-c1ncccn1)N1CC2CN(c3ncc4cc(F)ccc4n3)CC2C1 (stereo not shown) [Example 243]"
subjectoftest = "human orexin-2 receptor (Homo sapiens (Human), UniProt O43614)"
reported = 7.80

[[record]]
molecule = "Cc1cc(C)nc(N2CC3CN(C(=O)c4cnnc5ccccc45)CC3C2)n1 (stereo not shown) [Example 203]"
subjectoftest = "human orexin-2 receptor (Homo sapiens (Human), UniProt O43614)"
reported = 5.30

[[record]]
molecule = "Cc1ccc(-c2ccccc2C(=O)N2CC3CN(c4cnc5ccccc5n4)CC3C2)cc1 (stereo not shown) [Example 193]"
subjectoftest = "human orexin-2 receptor (Homo sapiens (Human), UniProt O43614)"
reported = 5.94


I = COc1ccc(C(=O)N2CC3CN(c4nccc(OC)n4)CC3C2)c(OC)c1 (stereo not shown) [Example 179]
II = COc1ccccc1S(=O)(=O)N1CC2CN(c3nc(C)cc(C)n3)CC2C1 (stereo not shown) [Example 359]
Could you kindly indicate whether I or II has the higher pKi value? // output: label of the selected item
II
(II: 6.74, I: 5.05)

P = O=C(c1ccccc1-n1nccn1)N1CC2CN(c3nc4ccccc4o3)CC2C1 (stereo not shown) [Example 144]
Q = Cc1cc(C)nc(N2CC3CN(C(=O)c4cccc(F)c4F)CC3C2)n1 (stereo not shown) [Example 271]
R = Cc1nc2ccccc2nc1N1CC2CN(C(=O)c3ccccc3-c3cccs3)CC2C1 (stereo not shown) [Example 65]
S = Cc1cnc(C)c(N2CC3CN(C(=O)c4ccccc4-c4cccs4)CC3C2)n1 (stereo not shown) [Example 63]
T = COc1ccc(C(=O)N2CC3CN(c4cnc5ccccc5n4)CC3C2)c(C)c1 (stereo not shown) [Example 197]
Rank ascending by pKi. Form entry: labels listed in requested order.
Q, T, R, P, S
(Q: 5.30, T: 5.93, R: 6.64, P: 7.06, S: 7.36)

A = COc1ccnc(N2CC3CN(C(=O)c4c(C)ccc5ccccc45)CC3C2)n1 (stereo not shown) [Example 49]
B = Cc1cc(C)nc(N2CC3CN(C(=O)c4cc(F)ccc4-c4ccccn4)CC3C2)n1 (stereo not shown) [Example 403]
C = Cc1cc(C)nc(N2CC3CN(C(=O)c4sccc4-c4ccccc4)CC3C2)n1 (stereo not shown) [Example 12]
D = COc1ccc(C(=O)N2CC3CN(c4cc(N(C)C)nc(C)n4)CC3C2)c(-n2nccn2)c1 (stereo not shown) [Example 391]
E = Cc1ccc2nc(N3CC4CN(C(=O)c5ccccc5-c5ccccc5)CC4C3)sc2c1 (stereo not shown) [Example 188]
Rank ascending by pKi. Form entry: labels listed in requested order.
E, B, A, C, D

A = Cc1cc(N2CC3CN(C(=O)c4ccccc4-c4ccccc4)CC3C2)nc2ccccc12 (stereo not shown) [Example 178]
B = CN(C)c1nc(N2CC3CN(C(=O)c4cc(F)ccc4-n4nccn4)CC3C2)cc(C(F)(F)F)n1 (stereo not shown) [Example 110]
Between A and B , which one shows the smaller pKi number? // output: label of the selected item
A
(A: 6.91, B: 7.28)

P = Cc1ccc(-c2cc(F)ccc2C(=O)N2CC3CN(c4nc(C)cc(C)n4)CC3C2)nc1 (stereo not shown) [Example 248]
Q = CN(C)c1cc(N2CC3CN(C(=O)c4cc(F)ccc4-n4nccn4)CC3C2)nc(C(F)(F)F)n1 (stereo not shown) [Example 9]
R = Cc1ccc(-c2ncccn2)c(C(=O)N2CC3CN(c4nc(C)cnc4C)CC3C2)c1 (stereo not shown) [Example 103]
S = COc1ccnc(N2CC3CN(C(=O)c4ccccc4-c4ccc(C)cc4)CC3C2)n1 (stereo not shown) [Example 54]
T = Cc1ccoc1C(=O)N1CC2CN(c3cnc4ccccc4n3)CC2C1 (stereo not shown) [Example 355]
Rank ascending by pKi. Form entry: labels listed in requested order.
T, S, P, Q, R

a = COc1cc(OC)nc(N2CC3CN(C(=O)c4cc(C)ccc4-n4nccn4)CC3C2)n1 (stereo not shown) [Example 129]
b = O=C(c1ccccc1-c1ccccc1)N1CC2CN(c3nc4ccc(F)cc4s3)CC2C1 (stereo not shown) [Example 176]
Between a and b , which one shows the smaller pKi number? // output: label of the selected item
b

A = Cc1cc(C)nc(N2CC3CN(C(=O)c4occc4-c4ccccc4)CC3C2)n1 (stereo not shown) [Example 13]
B = Cc1cc(C)nc(N2CC3CN(C(=O)c4cccc(C)c4C)CC3C2)n1 (stereo not shown) [Example 219]
C = Cc1cc(N2CC3CN(C(=O)c4ccccc4-n4nccn4)CC3C2)nc(C(C)C)n1 (stereo not shown) [Example 81]
Rank ascending by pKi. Form entry: labels listed in requested order.
C, B, A
